The reported measurements were obtained from PubChem BioAssay AID2060330.

For each record, write down the corresponding pIC50.
- System: LG0703-F948-PDC spheroids with HUVEC/MSC, viability;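 note: spheroids exposed to compounds for seven days before readout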
- METHOD NOTES: Anticancer human tumor LG0703-F948-PDC patient-derived lung adenocarcinoma cell line growth inhibition [IpAb]
- COND: curve of first compound; second compound 10 µM
pIC50: −log10 of the molar value.

Please review the entries below; each comes with its answer.
{"COMPOUND": "Cn1ncnc1[C@H]1c2n[nH]c(=O)c3cc(F)cc(c23)N[C@@H]1c1ccc(F)cc1 + CC(C)NCC(C(=O)N1CCN(c2ncnc3c2C(C)CC3O)CC1)c1ccc(Cl)cc1", "pIC50": "> 9.50"}
{"COMPOUND": "COc1c(OCCCN2CCOCC2)ccc2c3n(c(=NC(=O)c4cnc(N)nc4)nc12)CCN3 + CC(C)NCC(C(=O)N1CCN(c2ncnc3c2C(C)CC3O)CC1)c1ccc(Cl)cc1", "pIC50": "> 8.50"}

The recorded pIC50 for CC(=O)c1c(C)c2cnc(Nc3ccc(N4CCNCC4)cn3)nc2n(C2CCCC2)c1=O + CC(C)NCC(C(=O)N1CCN(c2ncnc3c2C(C)CC3O)CC1)c1ccc(Cl)cc1 is > 9.02
